Reference for the values: patent US4358441A

- protocol: Acute toxicity (LD50) in rats of both sexes, oral and intraperitoneal route
- experimental-conditions: rat, in vivo, po, LD50, rat, female, os
measured-attribute: LD50 (mg/kg)
API: value field is a number in mg/kg; no unit string.

Query: Please give the measured LD50 for this compound: O=C(O)c1cccnc1
Response: 3850

====

- Test system: plasma levels of FFA
- protocol: Effect of oral administration on plasma levels of FFA in the empty rat
- experimental-conditions: 100 mg/kg oral referred to nicotinic acid, 10 h, empty rat
measured-attribute: Percent variations of plasma FFA with respect to the controls (%)
API: value field is a number in %; no unit string.

INSERT INTO assay_data (molecule, measured_value) VALUES
  ('O=C(OC[C@H](OC(=O)c1cccnc1)[C@@H](OC(=O)c1cccnc1)[C@H](OC(=O)c1cccnc1)[C@@H](COC(=O)c1cccnc1)OC(=O)c1cccnc1)c1cccnc1 [SORBINICATE, D-glucitol hexanicotinate]', -5),
  ('O=C(N[C@H]1C(OC(=O)c2cccnc2)O[C@H](COC(=O)c2cccnc2)[C@@H](OC(=O)c2cccnc2)[C@@H]1OC(=O)c1cccnc1)c1cccnc1 (stereo partly shown) [GLUN, N-nicotinoyl-glucosamine tetranicotinate]', -40);

From here, focus on the item given below.
Query: Please give the measured Percent variations of plasma FFA with respect to the controls for this molecule: O=C(OCC(COC(=O)c1cccnc1)(COC(=O)c1cccnc1)COC(=O)c1cccnc1)c1cccnc1 [NICERITROLE, pentaerithritol-tetranicotinate]
Response: -2

====

Listed next: entries and their corresponding Percent variations of plasma free glycerol with respect to the controls.
- Test system: plasma levels of free glycerol
- protocol: Effect of oral administration on plasma levels of free glycerol in the empty rat
- Format: in vivo, rat (COBS CD (SD) BR male)
- experimental-conditions: 100 mg/kg oral referred to nicotinic acid, 8 h, empty rat

Solved cases below.
INSERT INTO assay_data (compound, measured_value) VALUES
  ('O=C(N[C@H]1C(OC(=O)c2cccnc2)O[C@H](COC(=O)c2cccnc2)[C@@H](OC(=O)c2cccnc2)[C@@H]1OC(=O)c1cccnc1)c1cccnc1 (stereo partly shown) [GLUN, N-nicotinoyl-glucosamine tetranicotinate]', '-32%'),
  ('O=C(OCC(COC(=O)c1cccnc1)(COC(=O)c1cccnc1)COC(=O)c1cccnc1)c1cccnc1 [NICERITROLE, pentaerithritol-tetranicotinate]', '+11%'),
  ('O=C(OC[C@H](OC(=O)c1cccnc1)[C@@H](OC(=O)c1cccnc1)[C@H](OC(=O)c1cccnc1)[C@@H](COC(=O)c1cccnc1)OC(=O)c1cccnc1)c1cccnc1 [SORBINICATE, D-glucitol hexanicotinate]', '+20%');

From here, focus on the item given below.
Query: Please give the measured Percent variations of plasma free glycerol with respect to the controls for this compound: O=C(O)c1cccnc1 [NICOTINIC ACID, nicotinic acid]
Response: +11%

====

- Tested on: plasma levels of triglycerides
- protocol: Effect of oral administration on plasma levels of triglycerides in the empty rat
- Type: in vivo, rat (COBS CD (SD) BR male)
- experimental-conditions: 30 mg/kg oral referred to nicotinic acid, 1 h, empty rat
measured-attribute: Percent variations of plasma triglycerides with respect to the controls (%)
API: value field is a number in %; no unit string.

Solved cases below.
INSERT INTO results (compound, measured_value) VALUES
  ('O=C(N[C@H]1C(OC(=O)c2cccnc2)O[C@H](COC(=O)c2cccnc2)[C@@H](OC(=O)c2cccnc2)[C@@H]1OC(=O)c1cccnc1)c1cccnc1 (stereo partly shown) [GLUN, N-nicotinoyl-glucosamine tetranicotinate]', -2),
  ('O=C(O)c1cccnc1 [NICOTINIC ACID, nicotinic acid]', -49),
  ('O=C(OCC(COC(=O)c1cccnc1)(COC(=O)c1cccnc1)COC(=O)c1cccnc1)c1cccnc1 [NICERITROLE, pentaerithritol-tetranicotinate]', -45);

From here, focus on the item given below.
Query: Please give the measured Percent variations of plasma triglycerides with respect to the controls for this compound: O=C(OC[C@H](OC(=O)c1cccnc1)[C@@H](OC(=O)c1cccnc1)[C@H](OC(=O)c1cccnc1)[C@@H](COC(=O)c1cccnc1)OC(=O)c1cccnc1)c1cccnc1 [SORBINICATE, D-glucitol hexanicotinate]
Response: -42
